System: 1368 (donor line of iPSC-derived cardiomyocytes)
Assay explanation: POD (EC95) for loss of peak frequency (asystole) vs vehicle; higher = less potent (higher point of departure)
Condition context: exposure time: 90 min

| Compound | System under test | POD vs vehicle |
| --- | --- | --- |
| O=S(=O)(OCC(F)(F)F)C(F)(F)C(F)(F)C(F)(F)C(F)(F)F [2,2,2-Trifluoroethyl_perfluorobutanesulfonate] | 1368 | > 100 µM |
| O=C(O)C=CC(F)(C(F)(F)F)C(F)(F)F [3-(Perfluoroisopropyl)-2-propenoic_acid] | 1368 | > 100 µM |
| OCCC(F)(F)C(F)(F)C(F)(F)C(F)(F)C(F)(F)C(F)(F)F [6:2 Fluorotelomer alcohol] | 1368 | > 100 µM |
| O=C(O)C(F)(F)C(F)(F)C(F)(F)C(F)(F)C(F)(F)C(F)(F)F [Perfluoroheptanoic_acid] | 1368 | > 100 µM |
| O=C(O)C(F)(F)OC(F)(F)C(F)(F)OC(F)(F)C(=O)O [Perfluoro-3,6-dioxaoctane-1,8-dioic_acid] | 1368 | > 100 µM |
| O=C(O)C(F)(F)OC(F)(F)C(F)(F)OC(F)(F)F [Perfluoro-3,6-dioxaheptanoic_acid] | 1368 | > 100 µM |
| OCC(O)CC(F)(F)C(F)(F)C(F)(F)C(F)(F)C(F)(F)C(F)(F)C(F)(F)C(F)(F)F (centres undefined) [1-(Perfluorofluorooctyl)propane-2,3-diol] | 1368 | > 100 µM |
| NC(=O)C(F)(F)C(F)(F)C(F)(F)C(F)(F)C(N)=O [Octafluoroadipamide] | 1368 | > 100 µM |
| O=C(O)CCC(F)(F)C(F)(F)C(F)(F)C(F)(F)C(F)(F)C(F)(F)C(F)(F)F [3-Perfluoroheptylpropanoic_acid] | 1368 | > 100 µM |
| OCC(F)(F)C(F)(F)C(F)(F)C(F)F [1H,1H,5H-Perfluoropentanol] | 1368 | > 100 µM |
| OCC(F)(F)C(F)(F)C(F)(F)C(F)(F)C(F)(F)C(F)(F)F [6:1 Fluorotelomer alcohol] | 1368 | > 100 µM |
| O=S(=O)(O)C(F)(F)C(F)(F)C(F)(F)C(F)(F)C(F)(F)C(F)(F)C(F)(F)C(F)(F)F [Perfluorooctanesulfonic_acid] | 1368 | > 100 µM |
| O=C(O)C(F)(F)C(F)(F)C(F)F [2,2,3,3,4,4-Hexafluorobutanoic_acid] | 1368 | > 100 µM |
| CN(CCO)S(=O)(=O)C(F)(F)C(F)(F)C(F)(F)C(F)(F)C(F)(F)C(F)(F)C(F)(F)C(F)(F)F [N-Methyl-N-(2-hydroxyethyl)perfluorooctanesulfonamide] | 1368 | > 100 µM |

----------
Test system: 20032 (donor line of iPSC-derived cardiomyocytes)
Assay explanation: POD (EC05) for decrease in beat frequency (negative chronotrope) vs vehicle; higher = less potent (higher point of departure)
Condition context: exposure time: 90 min

| Compound | System under test | POD vs vehicle |
| --- | --- | --- |
| O=C(O)CCC(F)(F)C(F)(F)C(F)(F)C(F)(F)C(F)(F)C(F)(F)C(F)(F)F | 20032 | > 100 µM |
| O=C(O)C(F)(F)OC(F)(F)C(F)(F)OC(F)(F)C(=O)O | 20032 | > 100 µM |
| CC(O)C(F)(F)C(F)(F)F (stereo not given) | 20032 | > 100 µM |
| OCC(F)(F)C(F)(F)C(F)(F)C(F)(F)C(F)(F)C(F)(F)F | 20032 | > 100 µM |
| O=C(O)CCC(F)(F)C(F)(F)C(F)(F)C(F)(F)C(F)(F)F | 20032 | 29.8 µM |
